target: mGlu2/3 receptors in rat forebrain membranes; conditions: read-out: Displacement of 3H-LY341495 binding (Ki, nM) (mean ± S.E., N = 3)
quantity: Ki (nM)
Give a bare numeral; the unit nM is implied.

Note down Ki recorded for NC1(C(=O)O)CCC2C(C(=O)O)C21 (single isomer, unassigned; (+))
80

---

target: human mGluR2 (Homo sapiens, UniProt Q14416); construct: expressed in transfected cells; assay: Displacement of [3H]LY341495 binding to cell membranes, human mGluR2; details: read-out: Displacement of 3H-LY341495 binding (Ki, nM) (mean ± S.E., N = 3)
Sequence (Q14416 19-872): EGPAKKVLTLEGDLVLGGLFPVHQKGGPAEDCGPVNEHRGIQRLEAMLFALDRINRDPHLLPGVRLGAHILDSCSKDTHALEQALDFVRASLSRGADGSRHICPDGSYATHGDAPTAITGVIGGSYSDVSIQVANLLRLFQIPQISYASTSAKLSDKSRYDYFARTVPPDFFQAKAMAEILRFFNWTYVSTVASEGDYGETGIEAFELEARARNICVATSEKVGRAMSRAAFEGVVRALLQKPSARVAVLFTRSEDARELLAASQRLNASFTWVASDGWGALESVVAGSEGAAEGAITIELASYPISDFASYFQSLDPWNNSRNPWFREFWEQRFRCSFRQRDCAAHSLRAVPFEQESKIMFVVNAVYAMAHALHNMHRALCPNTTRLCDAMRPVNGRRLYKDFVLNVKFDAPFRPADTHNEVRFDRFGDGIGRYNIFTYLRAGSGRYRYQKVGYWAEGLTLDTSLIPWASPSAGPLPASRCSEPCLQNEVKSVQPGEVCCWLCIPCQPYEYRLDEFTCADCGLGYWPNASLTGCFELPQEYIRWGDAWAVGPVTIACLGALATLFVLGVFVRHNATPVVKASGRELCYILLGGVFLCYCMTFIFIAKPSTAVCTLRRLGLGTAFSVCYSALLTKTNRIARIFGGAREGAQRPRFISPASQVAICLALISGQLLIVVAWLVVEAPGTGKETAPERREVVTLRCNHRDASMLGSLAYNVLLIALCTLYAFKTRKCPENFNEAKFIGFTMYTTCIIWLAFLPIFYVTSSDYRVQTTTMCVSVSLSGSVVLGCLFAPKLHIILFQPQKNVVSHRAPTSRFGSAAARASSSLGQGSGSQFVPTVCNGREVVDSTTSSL
quantity: Ki (nM)
Give a bare numeral; the unit nM is implied.

Note down Ki recorded for NC1(C(=O)O)CCC2C(C(=O)O)C21 (single isomer, unassigned; (+)) [LY354740]
84.7

---

biological target: human mGluR3 (Homo sapiens); construct: expressed in transfected cells; experiment: Displacement of [3H]LY341495 binding to cell membranes, human mGluR3; details: read-out: Displacement of 3H-LY341495 binding (Ki, nM) (mean ± S.E., N = 3)
Sequence (Q14832 23-879): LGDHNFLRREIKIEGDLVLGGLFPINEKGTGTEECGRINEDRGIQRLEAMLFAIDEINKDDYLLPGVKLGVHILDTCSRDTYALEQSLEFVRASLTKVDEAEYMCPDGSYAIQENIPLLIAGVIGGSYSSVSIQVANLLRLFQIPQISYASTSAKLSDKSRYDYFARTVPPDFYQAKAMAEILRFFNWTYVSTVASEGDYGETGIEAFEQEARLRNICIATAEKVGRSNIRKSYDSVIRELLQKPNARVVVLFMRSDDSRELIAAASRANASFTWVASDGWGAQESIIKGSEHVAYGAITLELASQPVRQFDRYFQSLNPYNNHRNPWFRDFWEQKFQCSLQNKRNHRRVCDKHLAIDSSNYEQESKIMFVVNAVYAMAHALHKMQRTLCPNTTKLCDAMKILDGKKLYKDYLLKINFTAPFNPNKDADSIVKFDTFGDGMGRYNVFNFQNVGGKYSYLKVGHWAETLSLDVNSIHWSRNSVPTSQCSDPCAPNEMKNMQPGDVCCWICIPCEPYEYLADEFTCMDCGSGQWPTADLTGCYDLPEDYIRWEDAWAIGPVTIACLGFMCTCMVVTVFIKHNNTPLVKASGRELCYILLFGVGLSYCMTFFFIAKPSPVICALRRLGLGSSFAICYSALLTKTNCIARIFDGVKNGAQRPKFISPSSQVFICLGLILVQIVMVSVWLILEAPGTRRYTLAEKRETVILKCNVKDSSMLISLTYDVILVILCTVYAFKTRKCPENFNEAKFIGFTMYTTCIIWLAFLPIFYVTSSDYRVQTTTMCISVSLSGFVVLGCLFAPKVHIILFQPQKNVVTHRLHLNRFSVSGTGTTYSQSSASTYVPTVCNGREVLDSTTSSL
quantity: Ki (nM)
Give a bare numeral; the unit nM is implied.

Note down Ki recorded for NC1(C(=O)O)CCC2C(C(=O)O)C21 (single isomer, unassigned; (+))
126
